system: P388; test: Growth inhibition of mouse P388 cells after 48 hrs by Z1 Beckman/Coulter particle counter analysis; assay type: functional; conditions: P388, 48 h, read-out: ED50 (the source's name)
testReadout: log10 EC50 (log10 of the value in ng/mL)

[
  {
    "compound": "COc1ccc(/C=C\\c2cc(I)c(OC)c(OC)c2)cc1OP(=O)([O-])[O-].[Li+].[Li+]",
    "testReadout": "log10 EC50",
    "measuredValue": 1.23
  },
  {
    "compound": "COC(=O)CN.COC(=O)CN.COc1ccc(/C=C\\c2cc(I)c(OC)c(I)c2)cc1OP(=O)(O)O",
    "testReadout": "log10 EC50",
    "measuredValue": 1.04
  },
  {
    "compound": "C1COCCN1.C1COCCN1.COc1ccc(/C=C\\c2cc(I)c(OC)c(OC)c2)cc1OP(=O)(O)O",
    "testReadout": "log10 EC50",
    "measuredValue": 0.51
  },
  {
    "compound": "C1CCNCC1.C1CCNCC1.COc1ccc(/C=C\\c2cc(I)c(OC)c(OC)c2)cc1OP(=O)(O)O",
    "testReadout": "log10 EC50",
    "measuredValue": 0.41
  },
  {
    "compound": "COc1ccc(/C=C\\c2cc(I)c(OC)c(OC)c2)cc1OP(=O)(O)O.OCN(CO)CO.OCN(CO)CO",
    "testReadout": "log10 EC50",
    "measuredValue": 0.46
  },
  {
    "compound": "COc1ccc(/C=C\\c2cc(I)c(OC)c(I)c2)cc1O",
    "testReadout": "log10 EC50",
    "measuredValue": 0.45
  },
  {
    "compound": "COc1ccc(/C=C/c2cc(I)c(OC)c(OC)c2)cc1O [DIIODOCOMBSTATIN]",
    "testReadout": "log10 EC50",
    "measuredValue": 2.28
  },
  {
    "compound": "COC(=O)CN.COC(=O)CN.COc1ccc(/C=C\\c2cc(I)c(OC)c(OC)c2)cc1OP(=O)(O)O",
    "testReadout": "log10 EC50",
    "measuredValue": 0.41
  },
  {
    "compound": "COc1ccc(/C=C\\c2cc(I)c(OC)c(OC)c2)cc1O [IODOCOMBSTATIN]",
    "testReadout": "log10 EC50",
    "measuredValue": 0.30
  },
  {
    "compound": "COc1ccc(/C=C\\c2cc(I)c(OC)c(I)c2)cc1OP(=O)([O-])[O-].[Li+].[Li+]",
    "testReadout": "log10 EC50",
    "measuredValue": 1.32
  },
  {
    "compound": "C1COCCN1.C1COCCN1.COc1ccc(/C=C\\c2cc(I)c(OC)c(I)c2)cc1OP(=O)(O)O",
    "testReadout": "log10 EC50",
    "measuredValue": 1.15
  },
  {
    "compound": "COC(=O)[C@@H](N)Cc1c[nH]c2ccccc12.COC(=O)[C@@H](N)Cc1c[nH]c2ccccc12.COc1ccc(/C=C\\c2cc(I)c(OC)c(OC)c2)cc1OP(=O)(O)O",
    "testReadout": "log10 EC50",
    "measuredValue": 0.34
  },
  {
    "compound": "COc1ccc(/C=C\\c2cc(OC)c(OC)c(OC)c2)cc1O [COMBRETASTATIN A4]",
    "testReadout": "log10 EC50",
    "measuredValue": -0.52
  },
  {
    "compound": "COc1ccc(/C=C\\c2cc(I)c(OC)c(I)c2)cc1OP(=O)([O-])[O-].[Na+].[Na+]",
    "testReadout": "log10 EC50",
    "measuredValue": 1.48
  },
  {
    "compound": "COc1ccc(/C=C\\c2cc(I)c(OC)c(OC)c2)cc1OP(=O)([O-])[O-].[Na+].[Na+]",
    "testReadout": "log10 EC50",
    "measuredValue": 0.30
  },
  {
    "compound": "COC(=O)[C@@H](N)Cc1c[nH]c2ccccc12.COC(=O)[C@@H](N)Cc1c[nH]c2ccccc12.COc1ccc(/C=C\\c2cc(I)c(OC)c(I)c2)cc1OP(=O)(O)O",
    "testReadout": "log10 EC50",
    "measuredValue": 1.23
  }
]
